// reported IC50 per item
- assayed_system: T1, PTH/PTHrP receptor (P1R), wild-type, full-length (human, UniProt Q03431 27-593)
- T1 construct: whole, on cells; For HKRK-B28 cells it says only 'full-length P1R', and that receptor is treated here as the same one; also called P1R-WT; wild-type P1R
- T1 sequence (looked up): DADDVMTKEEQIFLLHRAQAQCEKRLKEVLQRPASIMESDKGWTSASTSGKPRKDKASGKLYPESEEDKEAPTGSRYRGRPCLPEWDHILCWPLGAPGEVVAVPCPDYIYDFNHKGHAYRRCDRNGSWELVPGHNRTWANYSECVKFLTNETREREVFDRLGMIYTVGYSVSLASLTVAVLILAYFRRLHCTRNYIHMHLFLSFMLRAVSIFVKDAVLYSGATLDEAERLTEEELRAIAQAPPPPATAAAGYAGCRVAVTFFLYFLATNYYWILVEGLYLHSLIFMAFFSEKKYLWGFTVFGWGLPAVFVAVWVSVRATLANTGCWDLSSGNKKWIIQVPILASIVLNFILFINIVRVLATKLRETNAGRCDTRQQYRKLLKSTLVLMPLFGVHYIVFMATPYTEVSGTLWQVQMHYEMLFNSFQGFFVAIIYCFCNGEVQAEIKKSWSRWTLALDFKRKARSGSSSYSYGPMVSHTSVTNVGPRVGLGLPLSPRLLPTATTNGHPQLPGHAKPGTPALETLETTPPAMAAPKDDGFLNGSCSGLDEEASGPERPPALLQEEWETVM
- assay_protocol: competition with 125I-[Ala3,12,Gln10,Har11,Trp14,Arg19,Tyr21]PTH(1-21)-amide tracer on HKRK-B28 cells expressing P1R
No end group written: not given here.
Give the quantity in µM, number only.

Known IC50 results, listed for orientation:
1) SVSEIALMHNLGKHLNSMERVEWLRKKLQDVHNY-NH2 (Gln6->Ala analog of [Tyr^34]hPTH(1-34)amide) [[Ala^6]PTH(1-34)] :: 4.5
2) SVSEIQLMHNLGKHLNSMERVEWLRKKLQDVHNY-NH2 (Human PTH(1-34) analog with Tyr at 34; also called [Tyr^34]hPTH(1-34)NH2; PTH(1-34) scaffold peptide) [PTH(1-34) ([Tyr^34]hPTH(1-34)amide)] :: 6
3) SVSEIQLMHALGKHLNSMERVEWLRKKLQDVHNY-NH2 [[Ala^10]PTH(1-34)] :: 6.4

# next binder below
Quick note, IC50 for SVSEIALMHALGKHLNSMERVEWLRKKLQDVHNY-NH2 (Double Ala analog of [Tyr^34]hPTH(1-34)amide) [[Ala^6,10]PTH(1-34)] landed at 3.9
